subject-of-test: human recombinant HDAC1 (Homo sapiens, UniProt Q13547)
Construct: purchased Enzo Life Science BML-SE456
Sequence (Q13547 whole entry): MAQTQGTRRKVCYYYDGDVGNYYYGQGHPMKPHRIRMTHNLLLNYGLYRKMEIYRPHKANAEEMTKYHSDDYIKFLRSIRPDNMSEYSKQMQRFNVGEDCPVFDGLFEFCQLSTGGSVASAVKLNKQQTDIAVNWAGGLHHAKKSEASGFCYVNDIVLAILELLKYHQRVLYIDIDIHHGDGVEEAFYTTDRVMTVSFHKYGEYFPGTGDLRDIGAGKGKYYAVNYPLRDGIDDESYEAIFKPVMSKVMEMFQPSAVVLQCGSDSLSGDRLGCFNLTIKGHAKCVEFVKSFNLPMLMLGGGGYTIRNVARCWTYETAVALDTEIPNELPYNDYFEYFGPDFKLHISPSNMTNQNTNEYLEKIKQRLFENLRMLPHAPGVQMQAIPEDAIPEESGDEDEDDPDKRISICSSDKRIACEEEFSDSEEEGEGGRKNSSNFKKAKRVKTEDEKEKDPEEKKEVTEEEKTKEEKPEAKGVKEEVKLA
method: HDAC1 enzyme activity inhibition assay (HDAC Fluorimetric Drug Discovery Kit)
Format: biochemical
condition-label: human recombinant HDAC1, Fluor de Lys substrate 10 μM, 30° C. 60 minutes
Parameter: pIC50. Scope: all listed entries.
The value called pIC50 is obtained by taking minus log10 of the concentration in mol/L.

Record excerpt, results attached:
{"molecule": "O=C(N1CCOCC1)N(Cc1ccc(-c2nnc(C(F)(F)F)o2)cc1F)c1ccc(F)cc1 [Compound 21842]", "pIC50": 4.60}
{"molecule": "CCN1CCN(C(=O)N(Cc2ccc(-c3nnc(C(F)F)o3)cc2)c2cccc(Cl)c2)CC1 [Compound 21877]", "pIC50": 4.19}

[ask] Request the reported pIC50 associated with O=C(N1CCS(=O)(=O)CC1)N(Cc1ccc(-c2nnc(C(F)F)o2)cc1F)c1ccccc1F [Compound 21808]
[reply] 4.37
